TESTED SYSTEM: UniProtKB Q12809
Sequence (Q12809 whole entry): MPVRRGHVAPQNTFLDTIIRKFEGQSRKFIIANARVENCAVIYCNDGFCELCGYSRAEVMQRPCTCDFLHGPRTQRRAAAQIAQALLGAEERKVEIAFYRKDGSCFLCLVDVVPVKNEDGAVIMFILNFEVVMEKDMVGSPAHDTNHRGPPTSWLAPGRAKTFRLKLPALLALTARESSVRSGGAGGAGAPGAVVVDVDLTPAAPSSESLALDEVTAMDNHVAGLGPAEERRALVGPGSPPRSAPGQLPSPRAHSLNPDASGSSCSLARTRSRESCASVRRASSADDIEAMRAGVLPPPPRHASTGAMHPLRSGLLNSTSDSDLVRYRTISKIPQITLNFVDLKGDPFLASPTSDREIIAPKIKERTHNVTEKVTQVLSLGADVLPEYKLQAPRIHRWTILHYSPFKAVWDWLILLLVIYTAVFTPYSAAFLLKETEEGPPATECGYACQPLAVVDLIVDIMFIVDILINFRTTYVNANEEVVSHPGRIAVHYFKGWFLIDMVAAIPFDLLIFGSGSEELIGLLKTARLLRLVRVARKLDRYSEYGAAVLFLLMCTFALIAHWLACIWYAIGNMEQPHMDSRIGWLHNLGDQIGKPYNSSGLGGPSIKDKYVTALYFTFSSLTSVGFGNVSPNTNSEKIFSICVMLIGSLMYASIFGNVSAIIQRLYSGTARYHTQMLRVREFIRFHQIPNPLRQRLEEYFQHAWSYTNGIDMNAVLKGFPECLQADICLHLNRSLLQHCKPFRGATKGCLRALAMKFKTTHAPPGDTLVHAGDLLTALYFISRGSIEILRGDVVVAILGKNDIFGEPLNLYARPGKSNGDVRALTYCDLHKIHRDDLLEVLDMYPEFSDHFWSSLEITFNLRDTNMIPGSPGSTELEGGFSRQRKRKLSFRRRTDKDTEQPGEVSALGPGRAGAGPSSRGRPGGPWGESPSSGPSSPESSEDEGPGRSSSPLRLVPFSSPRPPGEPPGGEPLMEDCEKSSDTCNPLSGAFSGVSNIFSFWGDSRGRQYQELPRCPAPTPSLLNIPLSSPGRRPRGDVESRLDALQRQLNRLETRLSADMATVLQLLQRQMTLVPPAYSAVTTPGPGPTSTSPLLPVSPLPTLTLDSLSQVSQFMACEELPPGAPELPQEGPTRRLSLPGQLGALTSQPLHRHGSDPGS
TEST DETAILS: hERG analysis Method 1 (QPatch HT automated patch clamp, CHO cells)
CONDITION CONTEXT: hERG-expressing CHO cells, tail current, room temperature (22±2° C.), 4 cumulative concentrations
OBSERVED PROPERTY: IC50 (nM)
The reply should contain only the number, in nM.

- CPD SMILES: "CCCCNc1nc(N)nc(C)c1Cc1ccc(N2CCN(C)CC2=O)cc1OC"
  IC50 / nM: 2900

In the following, a different molecule is considered.
*Q* Quick check: IC50 on UniProtKB Q12809, item CCCCCNc1nc(N)nc(C)c1Cc1ccc(N2CCN(C)CC2=O)cc1OC ?
*A* 800
